biological target: T1, human CCR8 (human, UniProt P51685 1-355); assay: FACS, hybridoma supernatant on CHO-K1-human CCR8 cells
T1 construct: whole, on cells; In the β-arrestin assay CCR8 is fused to the ProLink (PK) tag; also called hCCR8; CHO-K1-human CCR8
T1 sequence (P51685 whole entry, the tested form may be a part): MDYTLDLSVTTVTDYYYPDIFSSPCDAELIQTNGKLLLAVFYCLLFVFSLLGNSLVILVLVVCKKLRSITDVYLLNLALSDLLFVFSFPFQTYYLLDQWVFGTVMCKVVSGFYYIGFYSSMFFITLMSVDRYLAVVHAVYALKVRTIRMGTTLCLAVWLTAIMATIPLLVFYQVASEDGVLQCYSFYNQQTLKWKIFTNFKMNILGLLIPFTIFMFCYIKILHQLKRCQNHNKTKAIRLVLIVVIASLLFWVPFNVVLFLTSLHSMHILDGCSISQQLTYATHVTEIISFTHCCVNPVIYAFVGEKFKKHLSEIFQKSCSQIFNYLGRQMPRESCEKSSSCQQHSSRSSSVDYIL
endpoint name: Binding Ratio (GFP + MFI)/(GFP - MFI)
The answer should be written as a number, with no unit following it.

INSERT INTO assay_data (binder, assay_result) VALUES
  ('273H2G6 (antibody, V domains shown, Murine hybridoma antibody) VH: DVQLQESGPGLVKPSQSLSLTCSVTGYSITSGYYWNWIRQFPGNKLEWMGYISYDGSNNYNPSLKNRISITRDISKNQFFLKLNSVTTEDTATYYCARQVGLRRGAMDYWGQGTSVTVSS VL: DIQMTQSSSYLSVSLGGRVTITCKASDHINNWLAWYQQKPGNAPRLLISGSTSLKAGVASRFSGSGSGKDYTLSITSLQTEDVATYYCQQYWSIPYTFGGGTKLEIK', 120),
  ('262C2G7 (antibody, V domains shown, Murine hybridoma antibody) VH: DVHLQESGPGLVKPSQSLSLTCSVTGYSITSGYYWNWIRQFPGNKLEWMGYISYDGSNNYNPSLKNRISITRDISKNQFFLKLNSVTTEDTATYYCARQIGLRRGAMDYWGQGTSVTVSS VL: DIQMTQSSSYLSVSLGGRVTITCKASDHINNWLAWYQQKPGNAPRLLISGSTSLKAGVASRFSGSGSGKDYTLTITSLQTEDVATYYCQQYWGIPFTFGGGTKLEIK', 404),
  ('191E12H8 (antibody, V domains shown, Murine hybridoma antibody) VH: DVQLQESGPGLVKPSQSLSLTCSVTGYSITSGYYWNWIRQFPGNKLEWMGYISYDGSNNYNPSLKNRISITRDISKNQFFLKLNSVTTEDTATYYCARQIGLRRGAMDYWGQGTSVTVSS VL: DIQMTQSSSYLSVSLGGRVTITCKASDHINTWLAWYQQKPGNAPRLLISGSTSLKAGVASRFSGSGSGKDYTLTITSLQTEDVATYYCQQYWGIPFTFGGGTKLEIK', 345),
  ('149F2C10 (antibody, V domains shown, also called 1491F2C0) VH: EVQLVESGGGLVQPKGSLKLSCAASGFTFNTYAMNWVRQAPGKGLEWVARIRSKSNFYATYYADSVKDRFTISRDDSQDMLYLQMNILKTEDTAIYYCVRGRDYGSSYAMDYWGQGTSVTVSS VL: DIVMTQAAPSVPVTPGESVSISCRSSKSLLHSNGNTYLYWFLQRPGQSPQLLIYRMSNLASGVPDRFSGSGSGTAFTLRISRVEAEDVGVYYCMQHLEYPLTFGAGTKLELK', 170),
  ('204A2G12 (antibody, V domains shown, Murine hybridoma antibody) VH: DVQLQESGPGLVKPSQSLSLTCSVTGYSITSGYYWNWIRQFPGNKLEWMGYISYDGTNNYNPSLKNRISITRDTSKNQFFLKLTSVTTEDTATYYCARQVGLRRAWFAYWGQGTLVTVSA VL: DIQMTQSSSFLSVSLGGRVTITCKASDHINYWLAWYQQKPGNAPRLLISGATSLETGVPSRFSGSGSGKDYTLTITSLQNEDVATYYCHQYWSTPTFGSGTKLEIK', 145);

Here is the next item to consider.
Item under review: 499B1A5 (antibody, V domains shown, Murine hybridoma antibody (supernatant)) VH: EVQLVESGGGLVQPKGSLKLSCAASGFTFNTYAMNWVRQAPGKGLEWVARIRSKSNNYATYYADSVKDRFTISRDDSQSMLYLQMNNLKTEDTAMYYCVRHGRSGYLYAMDYWGQGTSVTVSS VL: DIVMTQAAFSNPVTLGTSASISCRSSKSLLHSNGITYLYWYLQKPGQSPQLLIYQMSNLASGVPDRFSSSGSGTDFTLRISRVEAEDVGVYYCAQSLELPLTFGAGTKLELK . Reported Binding Ratio (GFP + MFI)/(GFP - MFI)?
34.4
